# STUDY_SYSTEM: cereblon (CRBN) (Homo sapiens)
# MEASUREMENT_NOTES: In vitro CRBN binding assay (AlphaScreen, competitive inhibition of the PROTAC assay)
# CONDITION_INFO: Table 1; AlphaScreen, PROTAC Optimization Kit for BET Bromodomain-Cereblon Binding; read-out: Alpha IC50
Response field label: string, one of Fulfilled (IC50 strictly below 1000 nM) or Not fulfilled.

> print(dat)
                                    molecule  class.assignment
 1  Cc1ccc(C(=O)Nc2cccc(C3CCC(=O)NC3=O)c2)cc1 (stereo not shown)     Not fulfilled
 2  O=C1CCC(c2cccc(NC(=O)c3ccc(F)c(F)c3)c2)C(=O)N1 (stereo not shown)     Not fulfilled
 3  O=C1CCC(c2cccc(NS(=O)(=O)c3cccc(NC(=O)c4cc(F)c(F)cc4F)c3)c2)C(=O)N1 (stereo not shown)         Fulfilled
 4  CC(=O)N1CCC(NC(=O)CCc2cccc(Nc3cccc(C4CCC(=O)NC4=O)c3)c2)CC1 (stereo not shown)         Fulfilled
 5  COC(=O)c1cccc(S(=O)(=O)Nc2cccc(C3CCC(=O)NC3=O)c2)c1 (stereo not shown)     Not fulfilled
 6  CCCCc1ccc(C(=O)Nc2cccc(Nc3cccc(C4CCC(=O)NC4=O)c3)c2)cc1 (stereo not shown)     Not fulfilled
 7  CCCCc1ccc(C(=O)Nc2cccc(S(=O)(=O)Nc3cccc(C4CCC(=O)NC4=O)c3)c2)cc1 (stereo not shown)         Fulfilled
 8  CS(=O)(=O)N1Cc2cc(C3CCC(=O)NC3=O)ccc2C1=O (stereo not shown)     Not fulfilled
 9  Cn1cnc(S(=O)(=O)Nc2cccc(C3CCC(=O)NC3=O)c2)c1 (stereo not shown)         Fulfilled
10  O=C1CCC(c2cccc(NCc3ccc(-c4ccccc4)cc3)c2)C(=O)N1 (stereo not shown)     Not fulfilled
11  O=C1CCC(c2ccc3c(c2)OCCN(c2ccccc2)C3=O)C(=O)N1 (stereo not shown)     Not fulfilled
12  CC1(C(=O)Nc2cccc(N3CCOc4cc(C5CCC(=O)NC5=O)ccc4C3=O)c2)CC1 (stereo not shown)     Not fulfilled
13  O=C1CCC(c2cccc(NS(=O)(=O)c3cccc(NC(=O)c4ccc(CCl)cc4)c3)c2)C(=O)N1 (stereo not shown)         Fulfilled
14  CCCCc1ccc(C(=O)Nc2cccc(N3CCOc4cc(C5CCC(=O)NC5=O)ccc4C3=O)c2)cc1 (stereo not shown)         Fulfilled
15  O=C1CCC(c2cccc(NCc3ccc(Br)cc3Cl)c2)C(=O)N1 (stereo not shown)     Not fulfilled
16  Nc1cccc(N2CCOc3cc(C4CCC(=O)NC4=O)ccc3C2=O)c1 (stereo not shown)     Not fulfilled
17  CCOC(=O)/C=C/c1cc(C)ccc1C1CCC(=O)NC1=O (stereo not shown)     Not fulfilled
18  O=C1CCC(c2cccc(NC(=O)c3cccc(Cl)c3Cl)c2)C(=O)N1 (stereo not shown)     Not fulfilled
19  Cc1ccc(CNc2cccc(C3CCC(=O)NC3=O)c2)c(C)c1 (stereo not shown)         Fulfilled
20  O=C1CCC(c2cccc(NS(=O)(=O)c3ccc(Cl)cc3F)c2)C(=O)N1 (stereo not shown)         Fulfilled
21  O=C1CCC(c2ccc(F)cc2)C(=O)N1 (stereo not shown)     Not fulfilled
22  O=C1CCC(c2cccc(NS(=O)(=O)c3ccccc3Cl)c2)C(=O)N1 (stereo not shown)         Fulfilled
23  O=C1CCC(c2cccc(NC(=O)c3ccccc3Br)c2)C(=O)N1 (stereo not shown)         Fulfilled
24  CC(C)(C)OC(=O)NCc1cccc(C2CCC(=O)NC2=O)c1 (stereo not shown)     Not fulfilled

Source: patent EP4692061A1
